Where do the numbers come from? From patent US20180237497A1.

# assayTarget: T1, human IGF2^1-67 (mature insulin-like growth factor 2) (human, UniProt P01344 25-91, biotinylated (site not stated) where immobilised on the chip (Tables 1-4))
# T1 construct: mature; also called mature IGF2; biotinylated IGF2
# T1 sequence (P01344 25-91): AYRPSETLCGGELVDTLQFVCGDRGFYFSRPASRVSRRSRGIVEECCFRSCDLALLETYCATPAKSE
# procedureSummary: SPR kinetic, biotin-IGF2 on chip, pH 7.4
Give pKd for every item shown.
Scale for pKd: -log10 of concentration given in mol/L; no unit attached.

Prompt: Let me know recorded pKd for domain 11^AB5 W1546F (receptor, See m5) MKSNEHDDCQVTNPSTGHLFDLSSLSGRAGFTAAYAKGFGVYMSICGENENCPPGVGACFGQTRISVGKANKRLRYVDQVLQLVYKDGSPCPSKSGLSYKSVISFVCRPEAGPTNRPMLISLDKQTCTLFFSWHTPLACEQATECSV , thanks.
Response: 8.36

Prompt: Report pKd for IGF2R domain 11^AB3 (receptor, His6-tagged soluble domain 11; also called domain 11^E1544K, K1545S, L1547V; 1542YSKSGV1547) MKSNEHDDCQVTNPSTGHLFDLSSLSGRAGFTAAYSKSGVVYMSICGENENCPPGVGACFGQTRISVGKANKRLRYVDQVLQLVYKDGSPCPSKSGLSYKSVISFVCRPEAGPTNRPMLISLDKQTCTLFFSWHTPLACEQATECSV
Response: 7.82

Prompt: Give recorded pKd. domain 11^AB5 Q1632E (receptor, See m5; HI loop mutant) MKSNEHDDCQVTNPSTGHLFDLSSLSGRAGFTAAYAKGWGVYMSICGENENCPPGVGACFGQTRISVGKANKRLRYVDQVLQLVYKDGSPCPSKSGLSYKSVISFVCRPEAGPTNRPMLISLDKETCTLFFSWHTPLACEQATECSV
Response: 7.40
